ASSAY_TARGET: h-Sortilin (Homo sapiens (Human))
Sequence (Q99523 78-831): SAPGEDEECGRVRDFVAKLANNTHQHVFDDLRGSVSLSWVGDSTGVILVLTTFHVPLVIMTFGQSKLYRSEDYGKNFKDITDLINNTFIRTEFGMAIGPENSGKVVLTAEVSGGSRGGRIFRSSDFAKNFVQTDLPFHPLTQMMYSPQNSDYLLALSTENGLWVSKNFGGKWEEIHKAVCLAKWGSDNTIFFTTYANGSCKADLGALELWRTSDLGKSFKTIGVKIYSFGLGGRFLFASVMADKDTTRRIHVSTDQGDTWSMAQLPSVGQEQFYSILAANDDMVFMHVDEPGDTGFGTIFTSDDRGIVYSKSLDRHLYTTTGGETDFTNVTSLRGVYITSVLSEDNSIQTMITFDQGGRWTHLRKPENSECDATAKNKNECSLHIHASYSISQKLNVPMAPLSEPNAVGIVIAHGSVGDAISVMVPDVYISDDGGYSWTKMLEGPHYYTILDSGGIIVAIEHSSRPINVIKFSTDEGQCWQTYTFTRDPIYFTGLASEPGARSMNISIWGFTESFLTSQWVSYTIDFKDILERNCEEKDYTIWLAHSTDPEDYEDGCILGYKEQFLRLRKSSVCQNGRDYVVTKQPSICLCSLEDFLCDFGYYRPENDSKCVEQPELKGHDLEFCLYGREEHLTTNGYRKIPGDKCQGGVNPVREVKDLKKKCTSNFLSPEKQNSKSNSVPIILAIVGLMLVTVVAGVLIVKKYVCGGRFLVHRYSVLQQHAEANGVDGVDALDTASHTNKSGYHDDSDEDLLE
ASSAY_NAME: Neurotensin (NTS) scintillation proximity assay (SPA): displacement of [3H]-neurotensin binding
TEST_CONDITIONS: 150 nM 6his-Sortilin, 5 nM [3H]-Neurotensin; average of at least 2 determinations
pIC50: −log10 of the molar value.

COMPOUND: COc1ccc([C@@H](C)N[C@@H](CCC(C)(C)C)C(=O)O)cc1OC [Example 107]
pIC50: 6.03

COMPOUND: CC(C)(C)CC[C@H](NCc1ccc2ccccc2n1)C(=O)O [Example 36]
pIC50: 5.80

COMPOUND: CC(C)(C)CC[C@H](NCc1cccc2cnccc12)C(=O)O [Example 81]
pIC50: 6.10

COMPOUND: CC(=O)c1cccc(CN[C@@H](CCC(C)(C)C)C(=O)O)c1 [Example 139]
pIC50: 6.24

COMPOUND: CC(C)(C)CC[C@H](NCc1ccc(Cl)cc1)C(=O)O [Example 76]
pIC50: 6.10

COMPOUND: Cc1cccc(CN[C@@H](CCC(C)(C)C)C(=O)O)c1C [Example 83]
pIC50: 6.15

COMPOUND: COc1cccc(CN[C@@H](CCC(C)(C)C)C(=O)O)c1.Cl [Example 5]
pIC50: 6.25

COMPOUND: CC(C)(C)CC[C@H](NCc1ccc2scnc2c1)C(=O)O [Example 51]
pIC50: 6.49

COMPOUND: CC(C)(C)CC[C@H](NCc1ccc2occc2c1)C(=O)O [Example 117]
pIC50: 6.37
